- target: F508delCFTR (Homo sapiens, UniProt P13569, DEL508-508)
- Construct: expressed in transfected cells; host or cells: CFBE41o- human lung-derived epithelial cells (CFBE4lo-F508delCFTR-HRP), doxycycline-inducible
- Sequence (P13569 with tags, fused parts or gaps DEL508-508): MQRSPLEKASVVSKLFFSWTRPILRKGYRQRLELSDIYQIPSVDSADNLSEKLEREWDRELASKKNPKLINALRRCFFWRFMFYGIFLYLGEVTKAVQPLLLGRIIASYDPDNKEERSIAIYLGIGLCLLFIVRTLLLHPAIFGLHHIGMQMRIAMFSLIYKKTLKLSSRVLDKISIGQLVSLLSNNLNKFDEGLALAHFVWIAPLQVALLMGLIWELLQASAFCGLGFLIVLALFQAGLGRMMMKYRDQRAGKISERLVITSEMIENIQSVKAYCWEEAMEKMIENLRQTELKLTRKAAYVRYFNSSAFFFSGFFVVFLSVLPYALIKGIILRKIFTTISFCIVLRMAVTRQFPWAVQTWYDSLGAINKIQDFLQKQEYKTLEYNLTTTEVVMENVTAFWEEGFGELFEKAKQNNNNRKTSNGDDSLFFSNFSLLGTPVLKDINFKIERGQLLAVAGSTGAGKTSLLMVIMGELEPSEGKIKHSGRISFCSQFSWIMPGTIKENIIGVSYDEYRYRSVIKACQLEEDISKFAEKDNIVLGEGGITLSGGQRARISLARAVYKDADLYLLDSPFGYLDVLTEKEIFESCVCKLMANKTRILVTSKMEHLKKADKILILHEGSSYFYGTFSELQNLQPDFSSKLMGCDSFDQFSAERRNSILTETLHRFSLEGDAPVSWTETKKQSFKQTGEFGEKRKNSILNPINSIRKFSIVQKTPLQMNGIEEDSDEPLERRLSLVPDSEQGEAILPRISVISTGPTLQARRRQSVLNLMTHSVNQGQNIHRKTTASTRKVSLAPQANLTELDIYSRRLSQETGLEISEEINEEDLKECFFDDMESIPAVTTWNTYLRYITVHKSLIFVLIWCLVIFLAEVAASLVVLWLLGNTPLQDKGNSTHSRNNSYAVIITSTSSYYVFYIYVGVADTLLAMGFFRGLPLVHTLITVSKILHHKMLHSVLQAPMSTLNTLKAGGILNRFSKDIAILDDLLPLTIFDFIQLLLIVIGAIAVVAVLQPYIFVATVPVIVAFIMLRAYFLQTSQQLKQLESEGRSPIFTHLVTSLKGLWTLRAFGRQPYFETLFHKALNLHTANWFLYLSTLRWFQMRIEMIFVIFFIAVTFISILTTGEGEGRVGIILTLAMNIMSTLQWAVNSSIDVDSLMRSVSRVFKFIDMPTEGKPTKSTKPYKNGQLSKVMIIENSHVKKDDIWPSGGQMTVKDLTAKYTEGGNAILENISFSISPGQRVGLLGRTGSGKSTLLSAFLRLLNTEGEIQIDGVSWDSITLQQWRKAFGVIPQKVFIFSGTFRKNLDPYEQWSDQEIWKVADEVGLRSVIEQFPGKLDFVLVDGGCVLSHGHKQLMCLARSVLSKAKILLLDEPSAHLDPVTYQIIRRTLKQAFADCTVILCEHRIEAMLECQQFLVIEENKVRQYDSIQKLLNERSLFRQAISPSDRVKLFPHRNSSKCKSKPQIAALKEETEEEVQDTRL
- measurementNotes: Cell Surface Expression-Horse Radish Peroxidase (CSE-HRP) Assay
- Assay type: cell-based
- conditionLabel: with co-corrector (2 μM of 3-[(2R,4R)-4-({[1-(2,2-difluoro-1,3-benzodioxol-5-yl)cyclopropyl]carbonyl}amino)-7-methoxy-3,4-dihydro-2H-chromen-2-yl]benzoic acid); read-out: EC50 (with co-corrector)
pEC50: −log10 of the molar value.

{"molecule": "CCC(C)c1cnc(OC)c(CN[C@H]2[C@H](C(C)(C)C)[C@@H](C(=O)O)N(C(=O)C3CCCCC3)[C@H]2c2ccccc2)c1 (some centres unmarked) [Example I-70]", "pEC50": "> 6.00"}
{"molecule": "COc1ncc(C(F)(F)F)cc1CN[C@H]1[C@H](C(C)(C)C)[C@@H](C(=O)O)N(C(=O)C2CCCC2)[C@H]1c1ccccc1C(C)C [Example 98]", "pEC50": "> 6.00"}
{"molecule": "CC(C)(C)[C@H]1[C@H](NCc2cc3ccccc3o2)[C@H](c2ccccc2)N(C(=O)C2CCCCC2)[C@@H]1C(=O)O [Example I-46]", "pEC50": "5.00 to 6.00"}
{"molecule": "CC(C)(C)[C@H]1[C@H](NCc2ccc(Cl)c(Cl)c2)[C@H](c2ccccc2)N(C(=O)C2CCCCC2)[C@@H]1C(=O)O [III-130]", "pEC50": "5.00 to 6.00"}
{"molecule": "COc1ccc(C23CC(C2)C3)cc1CN[C@H]1[C@H](C(C)(C)C)[C@@H](C(=O)O)N(C(=O)[C@@H]2CCCCO2)[C@H]1c1cccnc1N(C)C [Example 51]", "pEC50": "> 6.00"}
{"molecule": "COc1ncc(-c2ccc(C)cc2)cc1CN[C@H]1[C@H](C(C)(C)C)[C@@H](C(=O)O)N(C(=O)C2CCCCC2)[C@H]1c1cccnc1N(C)C [II-410]", "pEC50": "> 6.00"}
{"molecule": "CC(C)(C)[C@@H]1[C@@H](Nc2cc(C(F)(F)F)cc(=O)[nH]2)[C@@H](c2ccccc2)N(C(=O)C2CCCCC2)[C@H]1C(=O)O (racemic) [III-23]", "pEC50": "< 5.00"}
{"molecule": "COc1ccc(C2(C(F)(F)F)CC2)cc1CN[C@H]1[C@H](C(C)(C)C)[C@@H](C(=O)O)N(C(=O)C2Cc3ccccc3O2)[C@H]1c1cccnc1N(C)C (single isomer, unassigned) [Example 37]", "pEC50": "> 6.00"}
{"molecule": "COc1nc(C(C)(C)C)ccc1CN[C@H]1[C@H](C(C)(C)C)[C@@H](C(=O)O)N(C(=O)C2CCCCO2)[C@H]1c1ccccc1C(C)C (some centres unmarked) [Example I-177]", "pEC50": "> 6.00"}
{"molecule": "Cc1cc(C(F)(F)F)cc(N[C@@H]2[C@@H](C(C)(C)C)[C@H](C(=O)O)N(C(=O)C3CCCCC3)[C@@H]2c2ccccc2)[n+]1[O-] (racemic) [III-32]", "pEC50": "5.00 to 6.00"}
{"molecule": "CC(C)Oc1ccc(Cl)cc1CN[C@H]1[C@H](C(C)(C)C)[C@@H](C(=O)O)N(C(=O)C2CCCCC2)[C@H]1c1ccccc1 [III-124]", "pEC50": "> 6.00"}
